Origin of measurements: the NTF2 design screens of Basanta et al. (2020)

protease stability score values for the sequences below.
- method notes: protease stability score; higher = more stable; yeast display proteolysis, trypsin and chymotrypsin;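 also: log10 excess protease needed over predicted unfolded state with 0 meaning unfolded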
measured property: protease stability score

> print(dat)
                                biosequence  measured.value
1  DEEDAKVLKQVLENVESGDSKSAETLLDKDVKFVIGDKVLHGRTQYVDRVRRETKRMRVKRQVQHYEVNNGRVHMTIDIQYDIDGKPLRDQITLTAEFHNGRMQSLEVKMDRDFKRKVDK           0.313
2  DDTVKEQAEKFFTAQNTGNPDQIANLVDPNARFTIGDKEYHGRENFKSWMETVRDKMDVDYQITDLKTDENHADVVAEYTSTHNGQPERRRMRVDMRLSNGRMKEVNIEDRS          -0.503
3  DDKKVRLARSWMQNVRENNEERLQKLIDPNAKVRIGNKVVNGDEEFRRQVKHRKEHMRLDVEIESMTFQGDHVSATYVFRQNVNGTPYSDRVEVHIKMENGRIKHIDARVPEEKLRELSS          -0.106
4  DEEVAQDVRRNVERGDWKRWAELADENARVSVGDNTYEGRNDWHKYVKDLEHQVDHFEVKHITIENGKIKVDFVLTVNGHEVRMKQVIVVTNGRISRLRIQATDTDVQRQLNEAMR          -0.066
5  DQENLDVLRRLWEALESGNPDKYSQLIDPNAEVVVGDKTYEGKENLKQEIRTERDEMRKEIDWKSMSVHNGQANAEAKIRSNHNGDPREMVVTARARFHNGKLQNYEQHVDK          -0.325
